All figures here come from PubChem BioAssay (NCI).

Test system: SNB-19 CNS
Assay: NCI tumour cell line growth inhibition, 48 h
Note to self: values exactly at 20 µM are 1.0. So TGI at or above 20 µM is 1.0, below is 0.0.

[
  {
    "molecule": "CC(C)=CCc1c(O)c(CC=C(C)C)c2oc(-c3ccc(O)cc3O)c(CC=C(C)C)c(=O)c2c1O",
    "category": 1.0
  },
  {
    "molecule": "Nc1cc(-c2ccccc2)nn1-c1nsc2ccccc12",
    "category": 1.0
  },
  {
    "molecule": "Cc1cc2[nH]c(Cl)c(/C=C3\\C(=O)Nc4ccccc43)c2cc1O",
    "category": 0.0
  },
  {
    "molecule": "CCN(CC)CCOc1ccc(N2C(=O)c3cccc4cc([N+](=O)[O-])cc(c34)C2=O)cc1",
    "category": 1.0
  },
  {
    "molecule": "O=c1c2cc(F)ccc2sc2c(N3CCNCC3)nc3ccccc3c12",
    "category": 0.0
  },
  {
    "molecule": "O=C1Nc2cc(Cl)ccc2/C1=C\\c1c(-c2ccc(F)cc2)nc2ccccn12",
    "category": 1.0
  },
  {
    "molecule": "Cc1ccc(C(=O)Nc2ccccc2)cc1N=NN(C)C",
    "category": 1.0
  },
  {
    "molecule": "O=C(CC1=Nc2nnc(CCCCCCCc3nnc4n3C(=O)C(CC(=O)c3ccccc3)=N4)n2C1=O)c1ccccc1",
    "category": 1.0
  },
  {
    "molecule": "CC(=O)O[C@H]1CC2C(C3CCC(C(C)CCC(=O)O)[C@]31C)[C@H](OC(C)=O)C[C@@H]1CC3(CC[C@]21C)OOC1(CC[C@]2(C)C4C[C@H](OC(C)=O)[C@]5(C)C(C(C)CCC(=O)O)CCC5C4[C@H](OC(C)=O)C[C@@H]2C1)OO3 (some centres undefined)",
    "category": 1.0
  }
]

---

# reported TGI; entries follow
System: DLD-1 colon
Test: NCI tumour cell line growth inhibition, 48 h

[
  {
    "molecule": "CCOC(=O)C(=O)Nc1ccc(C)c(C)c1",
    "TGI": "> 100 µM"
  },
  {
    "molecule": "COc1cccc(/C=C2\\CCC(CCN(C)C)(C3=CCCC3)C2=O)c1 (stereo not drawn)",
    "TGI": "36.4 µM"
  },
  {
    "molecule": "CC(=O)[CH-]C(C)=O.CC(=O)[CH-]C(C)=O.CC(=O)[CH-]C(C)=O.[In+3]",
    "TGI": "> 100 µM"
  },
  {
    "molecule": "Cc1ccc(C(=O)Nc2ccccc2)cc1N=NN(C)C",
    "TGI": "> 100 µM"
  },
  {
    "molecule": "C=CC1(CC)/C(=N\\O)C(CC)(CC)C(=O)N1O (stereo not drawn)",
    "TGI": "> 100 µM"
  },
  {
    "molecule": "N#CC(/C(CCCC(=O)Nc1cccc([N+](=O)[O-])c1)=N/NC(=O)c1cc2ccccc2cc1O)c1ccccc1 (stereo not drawn)",
    "TGI": "> 100 µM"
  },
  {
    "molecule": "Cc1cc(N(CCC#N)CCC#N)ccc1/C=C\\C(=O)Nc1ccccc1",
    "TGI": "> 100 µM"
  },
  {
    "molecule": "[Cl-].[Cl-].[Cl-].[O-]c1cccc2cccnc12.[O-]c1cccc2cccnc12.[O]=[Mo]",
    "TGI": "> 100 µM"
  }
]

---

System: T-47D breast
Test: NCI tumour cell line growth inhibition, 48 h

[
  {
    "molecule": "S=C(S)N1CCN(c2cccc(Cl)c2)CC1",
    "TGI": "> 100 µM"
  },
  {
    "molecule": "CN(C)c1ccc(C(=O)NCCCCCCC(=O)NO)cc1",
    "TGI": "1.04 µM"
  },
  {
    "molecule": "CCN(CC)C(=O)C[n+]1c2ccccc2n2cc(N)ccc21",
    "TGI": "> 100 µM"
  },
  {
    "molecule": "COc1ccc2[nH]c(S(=O)(=O)N3CC(CCl)c4ccc(N)cc43)cc2c1 (stereo not drawn)",
    "TGI": "> 100 µM"
  },
  {
    "molecule": "O=C1Nc2ccccc2C1=Nc1ccc(S(=O)(=O)Nc2nccs2)cc1",
    "TGI": "> 100 µM"
  },
  {
    "molecule": "Cn1ncc2[nH]cnc2c1=S",
    "TGI": "> 100 µM"
  },
  {
    "molecule": "CN1CCc2c(c3ccccc3c3ccccc23)C1",
    "TGI": "26.7 µM"
  },
  {
    "molecule": "O=C(Nc1cccc(-n2cc(-c3ccncc3)c(-c3ccc(Cl)c(O)c3)n2)c1)Nc1ccc(Cl)c(C(F)(F)F)c1",
    "TGI": "9.01 µM"
  }
]

---

Tested on: SR leukemia
Experiment: NCI tumour cell line growth inhibition, 48 h; in the data active = GI50 below about 0.43 µM; inactive = the rest
Possible outcomes: active, inactive

[
  {
    "compound": "N=C(N)N=Nc1ccc(NN=C(N)N)c2c1ncc1c2nc2sccn21",
    "category": "inactive"
  },
  {
    "compound": "C[C@@H]1C[N+]2([O-])[C@H]3C4=CCC[C@@H]4CC[C@H]3[C@@]3(C)OC(=O)CC[C@]34CC[C@H]1[C@@H]42 (stereo not given in full)",
    "category": "inactive"
  },
  {
    "compound": "COc1ccc(C(=O)c2cc(OC)c3c(c2)OCO3)cc1O",
    "category": "active"
  },
  {
    "compound": "COc1ccc2[nH]c(-c3ccccc3)c(/C=C(\\C#N)S(=O)(=O)c3ccccc3)c2c1",
    "category": "inactive"
  },
  {
    "compound": "NCCN.NCCN.[Cl-].[O]=[Os+2]=[O]",
    "category": "inactive"
  },
  {
    "compound": "CC(=O)O[C@H]1CCC2(C)C(=CCC3C2CCC2(C)/C(=N/OC(=O)c4ccc(N(CCCl)CCCl)cc4)CCC32)C1 (stereo not given in full)",
    "category": "inactive"
  },
  {
    "compound": "O=C(NCc1ccc(Cl)cc1Cl)c1ccc(NC2=C(Cl)C(=O)N(Cc3ccccc3)C2=O)cc1",
    "category": "inactive"
  },
  {
    "compound": "CCCS(=O)(=O)Nc1ccc(F)c(C(=O)c2c[nH]c3ncc(Cl)cc23)c1F",
    "category": "inactive"
  },
  {
    "compound": "O=NN(CCCl)C(=O)NCCCl",
    "category": "inactive"
  },
  {
    "compound": "O=C(Nc1cccc(-n2cc(-c3ccncc3)c(-c3ccc(Cl)c(O)c3)n2)c1)Nc1ccc(Cl)c(C(F)(F)F)c1",
    "category": "inactive"
  }
]

---

Tested on: SK-MEL-5 melanoma
Experiment: NCI tumour cell line growth inhibition, 48 h

[
  {
    "compound": "Clc1ccc(CSc2ncnc3c2ncn3C2CCCCO2)cc1 (stereo not given)",
    "TGI": "22.9 µM"
  },
  {
    "compound": "CCN(CC)C(=S)N/N=C(\\C)c1cccc(C)n1",
    "TGI": "1.46 µM"
  },
  {
    "compound": "Cn1ncc2[nH]cnc2c1=S",
    "TGI": "> 100 µM"
  },
  {
    "compound": "C[N+](C)(CCNC(=O)c1cccc2cc3ccccc3nc12)Cc1ccc([N+](=O)[O-])cc1",
    "TGI": "> 100 µM"
  },
  {
    "compound": "COc1cc2ncn(-c3cc(O[C@H](C)c4ccccc4Cl)c(C(N)=O)s3)c2cc1OC",
    "TGI": "1.08 µM"
  },
  {
    "compound": "COc1ccc(C2C(Cl)C(=O)N2NC(=O)c2ccc(N)cc2)cc1 (stereo not given)",
    "TGI": "> 100 µM"
  },
  {
    "compound": "C=C1C(O)C23CCC4C(C(=O)O)(C(=O)O)CC(OC5OC(CO)C(O)C(OC(=O)CCc6ccccc6)C5NC(=O)CC(C)C)CC4(C)C2CCC1(O)C3 (stereo not given)",
    "TGI": "> 100 µM"
  },
  {
    "compound": "CN1CCN(C(=S)N(C(=O)c2cccs2)C2CCCCC2)CC1",
    "TGI": "> 100 µM"
  },
  {
    "compound": "CC(=O)OC1CC2(C)C(OC(C)=O)CC1C2(C)C (stereo not given)",
    "TGI": "> 100 µM"
  },
  {
    "compound": "O=C(COc1ccc(/C=C/C(=O)c2ccc(Cl)cc2)cc1)Nc1c(Cl)cccc1Cl",
    "TGI": "> 100 µM"
  }
]

---

System: DU-145 prostate
Assay: NCI tumour cell line growth inhibition, 48 h
Residues, ends and D or L forms follow the SMILES beside them. *: point of attachment. Boc = CC(C)(C)OC(=O)*

[
  {
    "compound": "COC(=O)CNC(=O)C(Cc1ccccc1)NC(=O)C(Cc1ccccc1)NC(=O)OC(C)(C)C (stereo not drawn) (Boc-Phe-Phe-Gly-OMe; configuration not given here)",
    "GI50": "27.7 µg/mL"
  },
  {
    "compound": "O=C1Nc2cc(Cl)ccc2/C1=C\\c1c(-c2ccc(F)cc2)nc2ccccn12",
    "GI50": "1.49 µM"
  },
  {
    "compound": "CCCS(=O)(=O)Nc1ccc(F)c(C(=O)c2c[nH]c3ncc(Cl)cc23)c1F",
    "GI50": "7.55 µM"
  },
  {
    "compound": "CCN1CCN(c2cc(C)nc(N(CCNc3ccnc4cc(Cl)ccc34)Cc3ccc4c(c3)OCO4)n2)CC1",
    "GI50": "2.23 µM"
  },
  {
    "compound": "Nc1nc(/C=C\\c2ccc([N+](=O)[O-])cc2)nc(N2CCN(c3ccccc3)CC2)n1",
    "GI50": "40 µM"
  },
  {
    "compound": "CC(=O)O[C@H]1CCC2(C)C(=CCC3C2CCC2(C)/C(=N/OC(=O)c4ccc(N(CCCl)CCCl)cc4)CCC32)C1 (some centres undefined)",
    "GI50": "> 89.1 µM"
  },
  {
    "compound": "C(#Cc1cnccn1)/C=C\\C#Cc1cnccn1",
    "GI50": "19.2 µM"
  },
  {
    "compound": "CN1CCN(CCCOc2ccc3nc(Nc4cc(Cl)cc(Cl)c4)ccc3c2)CC1",
    "GI50": "1.57 µM"
  },
  {
    "compound": "O=C(N/N=C/c1ccccc1O)c1ccccc1O",
    "GI50": "0.847 µM"
  }
]
